Cited source: paper PMC4872661

target_or_test_system: DAFP-1
test_name: Hummel-Dreyer size-exclusion HPLC, Klotz plot
assay_setup: 0.10 M Na2SO4, 0.05% NaN3, 0.10 M NaPi, pH 7.00, ambient temperature; 1:1 stoichiometry
measured_attribute: pKd
Interpret pKd as the negative base-10 log of the concentration measured in mol/L.

In: Specify reported pKd for the molecule shown: NC(=O)C1=CN([C@@H]2O[C@H](COP(=O)(O)OP(=O)(O)OC[C@H]3O[C@@H](n4cnc5c(N)ncnc54)[C@H](O)[C@@H]3O)[C@@H](O)[C@H]2O)C=CC1
Out: 6.55
